Experiment: Cytotoxicity, alamarBlue viability, HuH28 cells
Type: cell-based
Conditions: human, HuH28 cells (human bile duct carcinoma cell line); 72 h; read-out: CC50, HuH28, AlamarBlue viability
Parameter: CC50 at 72 h. Scope: all listed entries.

compound	CC50 at 72 h
c1cc2c(c3c1CC1c4cc5c(cc4CCN1C3)OCO5)OCO2 (racemic) [dl-Tetrahydro coptisine]	> 100 µM
c1c2c(cc3c1OCO3)-c1cc3ccc4c(c3c[n+]1CC2)OCO4 [Coptisine chloride]	> 100 µM
COc1cc2c(cc1OC)-c1cc3ccc(OC)c(OC)c3c[n+]1CC2 [Palmatine chloride]	> 100 µM
